Values compiled from patent US7713994B2.

TESTED SYSTEM: cyclin D1/cdk 4 enzyme (Homo sapiens)
Construct: made in house; host or cells: Sf9 insect cells, recombinant baculovirus
Sequence (P11802 whole entry, species assumed): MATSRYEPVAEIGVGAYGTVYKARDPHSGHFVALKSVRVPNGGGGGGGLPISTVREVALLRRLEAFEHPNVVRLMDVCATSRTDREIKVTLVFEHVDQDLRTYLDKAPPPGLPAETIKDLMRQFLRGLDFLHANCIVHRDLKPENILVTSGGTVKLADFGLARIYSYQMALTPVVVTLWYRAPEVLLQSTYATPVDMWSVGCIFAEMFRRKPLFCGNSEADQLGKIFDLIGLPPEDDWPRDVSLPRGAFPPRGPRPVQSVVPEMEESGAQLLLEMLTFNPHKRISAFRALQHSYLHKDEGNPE
Sequence (P24385 whole entry partner, species assumed): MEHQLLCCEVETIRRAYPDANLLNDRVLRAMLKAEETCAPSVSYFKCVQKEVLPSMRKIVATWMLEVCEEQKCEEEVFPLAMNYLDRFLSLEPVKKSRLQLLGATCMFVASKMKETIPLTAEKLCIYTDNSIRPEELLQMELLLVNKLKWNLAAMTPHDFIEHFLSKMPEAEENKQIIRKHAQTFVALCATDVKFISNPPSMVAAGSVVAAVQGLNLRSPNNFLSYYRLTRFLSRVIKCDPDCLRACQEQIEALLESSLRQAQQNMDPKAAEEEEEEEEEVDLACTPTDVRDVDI
ASSAY NOTES: CDK4 ELISA kinase assay (phospho-Rb ser 795 detection)
Type: biochemical
STUDY CONDITIONS: In Vitro Enzyme Assays, 200 μM ATP, read-out: CDK4 IC50
MEASURED ATTRIBUTE: IC50 (nM)
Express it in nM; write the number only.

# COMPOUND, IC50 / nM
measured = [
    ("O=C1NC(=O)c2ccc(I)cc2/C1=C/Nc1ccc(CN2CCCC2)cc1", 660),
]

Switching to the query record.
Dear colleague, I am looking for the recorded IC50 of the following compound: O=C1NC(=O)c2ccc(-c3ccsc3)cc2/C1=C/Nc1ccc(N2CCC(N3CCCC3)CC2)c(F)c1
90

----------
Each item that follows carries a reported pIC50.
TESTED SYSTEM: cyclin E/CDK2 enzyme (Homo sapiens)
Construct: made in house; host or cells: Sf9 insect cells, recombinant baculovirus
ASSAY NOTES: CDK2 ELISA kinase assay (phospho-Rb ser 795 detection)
Assay type: biochemical
STUDY CONDITIONS: In Vitro Enzyme Assays, read-out: CDK2 IC50
pIC50: −log10 of the molar value.

# LINE NOTATION, TESTED SYSTEM, pIC50
records = [
    ("CN1CCN(c2ccc(N/C=C3\\C(=O)NC(=O)c4ccc(C#Cc5ccccc5)cc43)cc2)CC1", "cyclin E/CDK2 enzyme (Homo sapiens)", "< 4.30"),
    ("O=C1NC(=O)c2ccc(Br)cc2/C1=C/NCc1ccc(O)c(O)c1", "cyclin E/CDK2 enzyme (Homo sapiens)", "< 4.30"),
    ("O=C1NC(=O)c2ccc(-c3ccc(F)cc3)cc2/C1=C/Nc1ccc(CN2CCCC2)cc1", "cyclin E/CDK2 enzyme (Homo sapiens)", "< 4.30"),
    ("CCCCCCOc1ccc(CN/C=C2\\C(=O)NC(=O)c3ccc(Br)cc32)cc1O", "cyclin E/CDK2 enzyme (Homo sapiens)", "< 4.30"),
    ("O=C1NC(=O)c2ccc(Br)cc2C1=CNc1ccc(-c2c[nH]cn2)cc1", "cyclin E/CDK2 enzyme (Homo sapiens)", 4.96),
    ("CN(C)CCCCCN/C=C1\\C(=O)NC(=O)c2ccc(Br)cc21", "cyclin E/CDK2 enzyme (Homo sapiens)", 4.44),
    ("O=C1NC(=O)c2ccc(-n3cccc3)cc2/C1=C/Nc1ccc(CN2CCCC2)cc1", "cyclin E/CDK2 enzyme (Homo sapiens)", "< 4.30"),
]

Okay, now this molecule:
Entry C[C@@H]1CN(c2ccc(N/C=C3\C(=O)NC(=O)c4ccc(-c5ccoc5)cc43)cc2F)C[C@H](C)N1 : reported pIC50 = ?
< 4.30

----------
TESTED SYSTEM: IGF1-receptor kinase (Homo sapiens, UniProt P08069)
Construct: Purified GST-IGFR; purified Bis-IGFR and Tris-IGFR; fused on or other part: GST with a thrombin cleavage site, removed in the Bis-IGFR and Tris-IGFR forms
Sequence (P08069 999-1274 limits assumed): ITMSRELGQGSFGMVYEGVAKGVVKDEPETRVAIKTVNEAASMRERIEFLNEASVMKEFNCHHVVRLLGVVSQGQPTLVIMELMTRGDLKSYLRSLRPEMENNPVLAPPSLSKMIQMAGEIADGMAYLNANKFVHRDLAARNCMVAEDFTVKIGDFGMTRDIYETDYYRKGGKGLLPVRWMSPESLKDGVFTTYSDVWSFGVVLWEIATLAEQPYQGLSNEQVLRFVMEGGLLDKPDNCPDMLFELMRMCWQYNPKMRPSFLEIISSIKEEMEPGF
ASSAY NOTES: IGF1-R kinase assay (96-well FRET Lance)
STUDY CONDITIONS: 100 micromolar ATP; read-out: Igfr ic50
MEASURED ATTRIBUTE: IC50 (nM)
Give just the numeric value; nM need not be written.

# MOLECULE, TESTED SYSTEM, UNIT ABBREVIATION, REPORTED RESULT
records = [
    ("NC(=O)c1ccc(Nc2ccc3c(c2)/C(=C/Nc2ccc(CN4CCCCC4)cc2)C(=O)NC3=O)cc1", "IGF1-receptor kinase (Homo sapiens, UniProt P08069)", "nM", 1110),
    ("CC(=O)c1cccc(Nc2ccc3c(c2)/C(=C/Nc2ccc(CN(C)C)cc2)C(=O)NC3=O)c1", "IGF1-receptor kinase (Homo sapiens, UniProt P08069)", "nM", 887),
    ("Cc1ccccc1Nc1ccc2c(c1)/C(=C/Nc1ccc(CN3CCCCC3)cc1)C(=O)NC2=O", "IGF1-receptor kinase (Homo sapiens, UniProt P08069)", "nM", 4470),
]

Request - read-out IC50 | tested on IGF1-receptor kinase (Homo sapiens, UniProt P08069) | molecule COc1ccc(Nc2ccc3c(c2)/C(=C/Nc2ccc(CN(C)C)cc2)C(=O)NC3=O)cc1
566

Write down the reported IC50 of CC(=O)c1ccc(Nc2ccc3c(c2)/C(=C/Nc2ccc(CN4CCCCC4)cc2)C(=O)NC3=O)cc1 , test system: IGF1-receptor kinase (Homo sapiens, UniProt P08069).
6030

Enter reported IC50 observed with IGF1-receptor kinase (Homo sapiens, UniProt P08069) for CC(=O)c1cccc(Nc2ccc3c(c2)/C(=C/Nc2ccc(N4CC(C)NC(C)C4)cc2)C(=O)NC3=O)c1 (stereo not drawn)
540

Identify the measured IC50 of N#Cc1ccc(Nc2ccc3c(c2)/C(=C/Nc2ccc(CN4CCCCC4)cc2)C(=O)NC3=O)cc1 for IGF1-receptor kinase (Homo sapiens, UniProt P08069).
1520

Hi! What's the reported IC50 for Cc1ccc(Nc2ccc3c(c2)/C(=C/Nc2ccc(CN4CCCCC4)cc2)C(=O)NC3=O)cc1 on IGF1-receptor kinase (Homo sapiens, UniProt P08069)?
394

Notebook entry, IGF1-receptor kinase (Homo sapiens, UniProt P08069) assay: IC50 of O=C1NC(=O)c2ccc(Nc3ccccc3)cc2/C1=C/Nc1ccc(CN2CCCCC2)cc1 = ?
208
